measurement_target: T1, human TGFβ2 (human, UniProt P61812 303-414)
T1 construct: also called TGFβ2 homodimer
T1 sequence: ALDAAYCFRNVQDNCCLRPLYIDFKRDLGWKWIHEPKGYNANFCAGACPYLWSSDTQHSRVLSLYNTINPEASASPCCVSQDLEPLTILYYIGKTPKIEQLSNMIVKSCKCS
assay_method_text: Biacore off-rate vs wt GC1008, 50 nM

- binder: "N32V (antibody, V domains shown, GC1008 IgG4 variant) VH: QVQLVQSGAEVKKPGSSVKVSCKASGYTFSSVVISWVRQAPGQGLEWMGGVIPIVDIANYAQRFKGRVTITADESTSTTYMELSSLRSEDTAVYYCASTLGLVLDAMDYWGQGTLVTVSS VL: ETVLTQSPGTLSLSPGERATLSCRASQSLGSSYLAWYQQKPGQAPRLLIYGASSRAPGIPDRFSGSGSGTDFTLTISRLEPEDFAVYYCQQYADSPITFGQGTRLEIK"
  kd var/kd wt: 1.1
- binder: "S31V (antibody, V domains shown, GC1008 IgG4 variant) VH: QVQLVQSGAEVKKPGSSVKVSCKASGYTFSVNVISWVRQAPGQGLEWMGGVIPIVDIANYAQRFKGRVTITADESTSTTYMELSSLRSEDTAVYYCASTLGLVLDAMDYWGQGTLVTVSS VL: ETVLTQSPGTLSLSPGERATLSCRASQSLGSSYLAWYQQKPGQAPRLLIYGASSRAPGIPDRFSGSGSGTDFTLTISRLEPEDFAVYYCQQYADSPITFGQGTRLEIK"
  kd var/kd wt: 1
- binder: "V55F (antibody, V domains shown, GC1008 IgG4 variant) VH: QVQLVQSGAEVKKPGSSVKVSCKASGYTFSSNVISWVRQAPGQGLEWMGGVIPIFDIANYAQRFKGRVTITADESTSTTYMELSSLRSEDTAVYYCASTLGLVLDAMDYWGQGTLVTVSS VL: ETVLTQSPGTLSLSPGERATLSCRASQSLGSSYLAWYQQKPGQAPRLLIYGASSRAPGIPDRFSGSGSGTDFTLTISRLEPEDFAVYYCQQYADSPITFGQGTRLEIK"
  kd var/kd wt: 0.9
